Biological target: wild type human POLγ (POLγA:WT) (Homo sapiens, UniProt P54098)
Sequence (P54098 1-1239): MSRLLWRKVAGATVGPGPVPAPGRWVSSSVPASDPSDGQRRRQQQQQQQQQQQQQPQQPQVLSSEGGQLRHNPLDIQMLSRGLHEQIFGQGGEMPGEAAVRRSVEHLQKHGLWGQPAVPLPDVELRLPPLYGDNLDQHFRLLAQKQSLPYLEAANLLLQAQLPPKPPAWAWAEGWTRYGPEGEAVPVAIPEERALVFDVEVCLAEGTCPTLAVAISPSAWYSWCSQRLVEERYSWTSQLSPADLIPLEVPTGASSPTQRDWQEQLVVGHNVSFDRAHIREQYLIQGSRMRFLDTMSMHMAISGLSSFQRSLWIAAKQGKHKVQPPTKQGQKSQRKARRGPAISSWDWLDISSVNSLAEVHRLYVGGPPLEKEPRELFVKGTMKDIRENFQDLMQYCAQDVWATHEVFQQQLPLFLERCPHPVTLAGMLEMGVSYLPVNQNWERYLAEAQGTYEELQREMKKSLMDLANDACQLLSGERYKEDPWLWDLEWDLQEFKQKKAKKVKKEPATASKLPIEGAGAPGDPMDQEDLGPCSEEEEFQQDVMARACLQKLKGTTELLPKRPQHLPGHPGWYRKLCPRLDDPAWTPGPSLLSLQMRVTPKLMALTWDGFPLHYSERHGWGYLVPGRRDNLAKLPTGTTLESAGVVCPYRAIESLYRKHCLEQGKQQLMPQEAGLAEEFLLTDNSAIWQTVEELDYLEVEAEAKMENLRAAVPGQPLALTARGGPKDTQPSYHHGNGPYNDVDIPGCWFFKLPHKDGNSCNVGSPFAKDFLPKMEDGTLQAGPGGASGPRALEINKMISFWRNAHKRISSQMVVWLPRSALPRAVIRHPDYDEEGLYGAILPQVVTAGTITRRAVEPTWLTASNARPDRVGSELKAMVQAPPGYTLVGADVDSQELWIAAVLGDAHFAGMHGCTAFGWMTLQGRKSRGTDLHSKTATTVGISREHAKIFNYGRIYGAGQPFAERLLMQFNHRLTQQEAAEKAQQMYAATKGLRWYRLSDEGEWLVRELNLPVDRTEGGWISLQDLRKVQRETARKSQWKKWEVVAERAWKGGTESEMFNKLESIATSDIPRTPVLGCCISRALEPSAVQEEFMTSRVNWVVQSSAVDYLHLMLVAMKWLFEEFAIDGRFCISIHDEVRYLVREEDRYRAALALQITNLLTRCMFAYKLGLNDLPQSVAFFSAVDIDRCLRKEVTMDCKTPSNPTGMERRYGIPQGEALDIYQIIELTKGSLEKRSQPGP
Sequence (Q9UHN1 1-485 partner): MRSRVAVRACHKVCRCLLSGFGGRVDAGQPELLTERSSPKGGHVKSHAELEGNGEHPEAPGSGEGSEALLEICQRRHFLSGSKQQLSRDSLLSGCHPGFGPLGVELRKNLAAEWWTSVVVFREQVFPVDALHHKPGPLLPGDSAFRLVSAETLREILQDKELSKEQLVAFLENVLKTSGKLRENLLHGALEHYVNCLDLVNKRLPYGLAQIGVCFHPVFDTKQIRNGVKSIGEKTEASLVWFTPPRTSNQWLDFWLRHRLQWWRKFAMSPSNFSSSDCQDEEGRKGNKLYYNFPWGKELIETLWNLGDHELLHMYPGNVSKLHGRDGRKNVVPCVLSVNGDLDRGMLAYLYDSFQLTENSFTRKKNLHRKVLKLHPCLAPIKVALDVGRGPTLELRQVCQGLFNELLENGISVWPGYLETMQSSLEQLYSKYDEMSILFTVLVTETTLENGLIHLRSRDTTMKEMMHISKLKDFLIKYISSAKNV
Assay: DNA polymerization assay, wild type POLγ
Type: biochemical
Details: 100 μM dNTP, read-out: WT AC50 (μM) at 100 μM
RECORDED_ENDPOINT: AC50 (µM)

-- ask Give the reported value of AC50 for this record: Cc1cc(S(=O)(=O)Nc2cccc(-c3nccn3C)c2)c(C)cc1Cl [Example 19]
-- reply 0.8

-- ask Give the reported value of AC50 for this record: Cc1cc(S(=O)(=O)Nc2cccc(C(=O)NCc3ccccc3)c2)c(C)cc1Cl [Example 11]
-- reply 29

-- ask Give the reported value of AC50 for this record: Cc1cc(S(=O)(=O)Nc2cccc(C(=O)N3CCCC[C@H]3C)c2)c(C)cc1Cl [Example 9]
-- reply 2

-- ask Give the reported value of AC50 for this record: Cc1ccc(C)c(S(=O)(=O)Nc2csc(-c3ccccc3)n2)c1 [Example 134]
-- reply 0.3

[A] Cc1cc(S(=O)(=O)Nc2csc(C(=O)N3CCCC3)n2)c(C)cc1Cl [Example 166]
[B] Cc1nc2ccc(NS(=O)(=O)c3cc(C)c(Cl)cc3C)cc2o1 [Example 70]
-- ask I'm curious whether A or B has the smaller AC50 number. Which is it? Which one? Tell me its label.
-- reply A

[A] Cc1cc(S(=O)(=O)Nc2cccc(-c3cc[nH]n3)c2)c(C)cc1Cl [Example 68]
[B] Cc1ccc(S(=O)(=O)Nc2csc(-c3ccccc3)n2)c(C)c1 [Example 123]
-- ask // max by AC50 over [ A , B ] Which one? Tell me its label.
-- reply B
(B: 3 µM, A: 0.2 µM)

[I] Cc1cc(S(=O)(=O)Nc2csc(-c3ccccc3)n2)c(C)cc1Cl [Example 81]
[II] Cc1cc(S(=O)(=O)Nc2cccc(C(=O)N3C[C@H](C)[C@@H](N)C3)c2)c(C)cc1Cl [Example 108]
-- ask I'm curious whether I or II has the smaller AC50 number. Which is it? Which one? Tell me its label.
-- reply I

Taken from patent US20260138961A1.
